Molecular target: human recombinant bradykinin B1 receptor (Homo sapiens)
Construct: purchased Euroscreen ES-091; host or cells: CHO cells
Sequence (P46663 1-353): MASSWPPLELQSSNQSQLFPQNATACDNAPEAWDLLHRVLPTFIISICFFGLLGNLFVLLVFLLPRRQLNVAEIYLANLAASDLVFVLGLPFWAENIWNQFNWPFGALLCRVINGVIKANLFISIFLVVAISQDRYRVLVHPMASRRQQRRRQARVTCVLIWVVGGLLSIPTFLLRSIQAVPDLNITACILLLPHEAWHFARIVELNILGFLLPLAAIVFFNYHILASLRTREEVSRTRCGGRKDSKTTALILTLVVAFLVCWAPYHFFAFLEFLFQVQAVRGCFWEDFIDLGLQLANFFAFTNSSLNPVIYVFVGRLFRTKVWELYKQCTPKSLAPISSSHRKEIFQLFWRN
Test: Human recombinant bradykinin B1 receptor binding
Settings: radioligand [3H]-[Des-Arg10] Kallidin, CHO cell membranes; read-out: B1 binding
Procedure: 1. Human Recombinant Bradykinin B1 Receptor Binding Binding assays were carried out on human recombinant bradykinin) receptors (expressed in CHO cells) according to the Euroscreen Technical Data Sheet (Cat.No.:ES-091). 20 μg protein/tube was incubated with [3,4-prolyl-3,4-^3H(N)]-[Des-Arg^10] Kallidin as radioligand. Non specific binding was determined in the presence of 10 μM Lys-des-Arg^9-Bradykinin. […] Radioactivity was determined by liquid scintillation spectroscopy.
pKi: −log10 of the molar value. Where a name gives a salt, the structure may show the parent alone.

molecule: O=C(NCCC1CCNCC1)c1ccc(S(=O)(=O)Nc2ccccc2Oc2ccc(Cl)cc2Cl)cc1 [Example 11, trifluoroacetate]
measured_on: human recombinant bradykinin B1 receptor (Homo sapiens)
pKi: 7.00 to 7.70
--
molecule: O=C(NCCc1ccc(C2=NCCN2)cc1)c1ccc(S(=O)(=O)Nc2ccccc2Oc2ccc(Cl)c(Cl)c2)cc1 [Example 4]
measured_on: human recombinant bradykinin B1 receptor (Homo sapiens)
pKi: > 7.70
--
molecule: O=C(NCCCN1CCCCC1)c1ccc(S(=O)(=O)Nc2ccccc2Oc2ccc(Cl)cc2Cl)cc1 [Example 76]
measured_on: human recombinant bradykinin B1 receptor (Homo sapiens)
pKi: 7.00 to 7.70
--
molecule: O=C(NCCCN1CCC(N2CCCCC2)CC1)c1ccc(S(=O)(=O)Nc2ccccc2Oc2ccc(Cl)cc2Cl)cc1 [Example 3]
measured_on: human recombinant bradykinin B1 receptor (Homo sapiens)
pKi: > 7.70
--
molecule: O=C(NCCc1ccc(C2=NCCN2)cc1)c1ccc(S(=O)(=O)Nc2ccccc2Oc2ccc(Cl)cc2)cc1 [Example 6]
measured_on: human recombinant bradykinin B1 receptor (Homo sapiens)
pKi: > 7.70
--
molecule: O=C(NCCCN1CCC(N2CCCCC2)CC1)c1ccc(S(=O)(=O)Nc2ccccc2Oc2ccc(C(F)(F)F)cc2)cc1 [Example 129]
measured_on: human recombinant bradykinin B1 receptor (Homo sapiens)
pKi: 7.00 to 7.70
--
molecule: O=C(N[C@H]1CC[C@H](CCN2CCCC2)CC1)c1ccc(S(=O)(=O)Nc2ccccc2Oc2ccc(Cl)c(Cl)c2)cc1 [Example 64]
measured_on: human recombinant bradykinin B1 receptor (Homo sapiens)
pKi: 7.00 to 7.70
--
molecule: O=C(NCCN1CCN(Cc2ccccn2)CC1)c1ccc(S(=O)(=O)Nc2ccccc2Oc2ccc(Br)cc2)cc1 [Example 99]
measured_on: human recombinant bradykinin B1 receptor (Homo sapiens)
pKi: 7.00 to 7.70
--
molecule: O=C(NCCN1CCN(c2ccncc2)CC1)c1cccc(S(=O)(=O)Nc2ccccc2Oc2ccc(Cl)cc2Cl)c1 [Example 10, dihydrochloride]
measured_on: human recombinant bradykinin B1 receptor (Homo sapiens)
pKi: > 7.70
--
molecule: O=C(NCCc1ccc(C2=NCCN2)cc1)c1ccc(S(=O)(=O)Nc2ccccc2Oc2ccc(Br)cc2)cc1 [Example 7]
measured_on: human recombinant bradykinin B1 receptor (Homo sapiens)
pKi: > 7.70
--
molecule: O=C(Nc1ccc(N2CCC(N3CCCCC3)CC2)cc1)c1ccc(S(=O)(=O)Nc2ccccc2Oc2ccc(Br)cc2Cl)cc1 [Example 169]
measured_on: human recombinant bradykinin B1 receptor (Homo sapiens)
pKi: > 7.70
--
molecule: COc1cc(Cl)ccc1Oc1ccccc1NS(=O)(=O)c1ccc(C(=O)NCCCN2CCC(N3CCCCC3)CC2)cc1 [Example 132]
measured_on: human recombinant bradykinin B1 receptor (Homo sapiens)
pKi: > 7.70
--
molecule: O=C(NCCc1ccc(C2=NCCN2)cc1)c1ccc(S(=O)(=O)Nc2ccccc2Oc2ccc(Br)cc2Cl)cc1 [Example 22]
measured_on: human recombinant bradykinin B1 receptor (Homo sapiens)
pKi: > 7.70
--
molecule: O=C(N[C@H]1CC[C@H](CCN2CCCC2)CC1)c1ccc(S(=O)(=O)Nc2ccccc2Oc2ccc(F)cc2Cl)cc1 [Example 121]
measured_on: human recombinant bradykinin B1 receptor (Homo sapiens)
pKi: 7.00 to 7.70
--
molecule: O=C(NCCCCC1CCNCC1)c1ccc(S(=O)(=O)Nc2ccccc2Oc2ccc(Br)cc2)cc1 [Example 101, hydrochloride]
measured_on: human recombinant bradykinin B1 receptor (Homo sapiens)
pKi: 7.00 to 7.70
--
molecule: O=C(NCCCCC1CCNCC1)c1ccc(S(=O)(=O)Nc2ccccc2Oc2ccc(F)cc2Cl)cc1 [Example 135, hydrochloride]
measured_on: human recombinant bradykinin B1 receptor (Homo sapiens)
pKi: 7.00 to 7.70
--
molecule: O=C(NCCCN1CCC(N2CCCCC2)CC1)c1ccc(S(=O)(=O)Nc2ccccc2Oc2ccc(Br)cc2Cl)cc1 [Example 157]
measured_on: human recombinant bradykinin B1 receptor (Homo sapiens)
pKi: > 7.70
--
molecule: CN1CCC(N2CCC(CCNC(=O)c3ccc(S(=O)(=O)Nc4ccccc4Oc4ccc(Cl)cc4Cl)cc3)CC2)CC1 [Example 24]
measured_on: human recombinant bradykinin B1 receptor (Homo sapiens)
pKi: > 7.70
--
molecule: O=C(NCCCC1CCNCC1)c1ccc(S(=O)(=O)Nc2ccccc2Oc2ccc(Br)cc2Cl)cc1 [Example 30, hydrochloride]
measured_on: human recombinant bradykinin B1 receptor (Homo sapiens)
pKi: 7.00 to 7.70
--
molecule: O=C(CCNC(=O)c1ccc(S(=O)(=O)Nc2ccccc2Oc2ccc(Cl)cc2Cl)cc1)NC1CCNCC1 [Example 33, acetate]
measured_on: human recombinant bradykinin B1 receptor (Homo sapiens)
pKi: 7.00 to 7.70
--
molecule: O=C(NCCc1ccc(C2=NCCN2)cc1)c1ccc(S(=O)(=O)Nc2ccccc2Oc2ccc(Cl)cc2Cl)cc1 [Example 2, trifluoroacetate]
measured_on: human recombinant bradykinin B1 receptor (Homo sapiens)
pKi: > 7.70
--
molecule: O=C(NCCNC(=O)C1CCNCC1)c1ccc(S(=O)(=O)Nc2ccccc2Oc2ccc(Cl)cc2Cl)cc1 [Example 29, hydrochloride]
measured_on: human recombinant bradykinin B1 receptor (Homo sapiens)
pKi: 7.00 to 7.70
--
molecule: O=C(Nc1ccc(N2CCC(N3CCCCC3)CC2)cc1)c1ccc(S(=O)(=O)Nc2ccccc2Oc2ccc(Cl)cc2Cl)cc1 [Example 8]
measured_on: human recombinant bradykinin B1 receptor (Homo sapiens)
pKi: > 7.70
--
molecule: O=C(NCCCC1CCNCC1)c1ccc(S(=O)(=O)Nc2ccccc2Oc2ccc(Cl)cc2Cl)cc1 [Example 137]
measured_on: human recombinant bradykinin B1 receptor (Homo sapiens)
pKi: 7.00 to 7.70
--
molecule: O=C(NCCN1CCN(c2ccncc2)CC1)c1ccc(S(=O)(=O)Nc2ccccc2Oc2ccc(Cl)cc2Cl)cc1 [Example 1, dihydrochloride]
measured_on: human recombinant bradykinin B1 receptor (Homo sapiens)
pKi: > 7.70
--
molecule: O=C(NCCN1CCN(c2cnccn2)CC1)c1ccc(S(=O)(=O)Nc2ccccc2Oc2ccc(Br)cc2Cl)cc1 [Example 159]
measured_on: human recombinant bradykinin B1 receptor (Homo sapiens)
pKi: 7.00 to 7.70
--
molecule: O=C(NCCCN1CCN(c2ccncc2)CC1)c1ccc(S(=O)(=O)Nc2ccccc2Oc2ccc(Br)cc2)cc1 [Example 114]
measured_on: human recombinant bradykinin B1 receptor (Homo sapiens)
pKi: > 7.70

----------
Target: recombinant human B1 receptors (Homo sapiens)
Construct: host or cells: CHO (CHO-B1)
Sequence (P46663 1-353): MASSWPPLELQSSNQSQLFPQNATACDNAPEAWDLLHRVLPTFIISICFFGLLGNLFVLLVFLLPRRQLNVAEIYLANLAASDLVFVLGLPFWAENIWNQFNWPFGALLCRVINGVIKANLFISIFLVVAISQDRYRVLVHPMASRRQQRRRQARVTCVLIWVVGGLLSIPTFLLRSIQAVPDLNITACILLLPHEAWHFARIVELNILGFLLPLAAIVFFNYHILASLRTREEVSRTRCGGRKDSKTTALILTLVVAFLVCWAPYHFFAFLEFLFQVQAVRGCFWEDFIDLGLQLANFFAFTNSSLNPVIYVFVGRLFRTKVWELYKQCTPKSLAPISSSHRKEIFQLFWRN
Assay: Functional assay: cytosolic calcium ion concentration measured with plate reader fluorimeter in CHO-B1 cells, agonist LysDABK
Format: cell-based
Conditions: CHO-B1 cells, LysDABK at EC80, [Ca2+]i; read-out: B1 func.
pIC50: −log10 of the molar value. Counter-ions that a name gives are not always drawn.

molecule: O=C(NCCCN1CCC(N2CCCCC2)CC1)c1ccc(S(=O)(=O)Nc2ccccc2Oc2ccc(F)cc2Cl)cc1
pIC50: > 7.70
//
molecule: O=C(NCCc1ccc(C2=NCCN2)cc1)c1ccc(S(=O)(=O)Nc2ccccc2Oc2ccc(Cl)c(Cl)c2)cc1
pIC50: > 7.70
//
molecule: O=C(NCCc1ccc(C2=NCCN2)cc1)c1ccc(S(=O)(=O)Nc2ccccc2Oc2ccc(Br)cc2)cc1
pIC50: > 7.70
//
molecule: O=C(CCNC(=O)c1ccc(S(=O)(=O)Nc2ccccc2Oc2ccc(Cl)cc2Cl)cc1)NC1CCNCC1 [Example 33, acetate]
pIC50: 7.00 to 7.70
//
molecule: O=C(NCCN1CCN(Cc2ccccn2)CC1)c1ccc(S(=O)(=O)Nc2ccccc2Oc2ccc(Br)cc2)cc1
pIC50: 7.00 to 7.70
//
molecule: O=C(NCCCN1CCC(N2CCCCC2)CC1)c1ccc(S(=O)(=O)Nc2ccccc2Oc2ccc(Br)cc2)cc1
pIC50: > 7.70
//
molecule: O=C(NCCCCC1CCNCC1)c1ccc(S(=O)(=O)Nc2ccccc2Oc2ccc(F)cc2Cl)cc1 [Example 135, hydrochloride]
pIC50: 7.00 to 7.70
//
molecule: O=C(NCCCN1CCC(N2CCCCC2)CC1)c1ccc(S(=O)(=O)Nc2ccccc2Oc2ccc(Br)cc2Cl)cc1
pIC50: > 7.70
//
molecule: O=C(NCCC(=O)N1CCC(N2CCCCC2)CC1)c1ccc(S(=O)(=O)Nc2ccccc2Oc2ccc(Cl)cc2Cl)cc1 [Example 62, trifluoroacetate]
pIC50: > 7.70
//
molecule: COc1cc(Cl)ccc1Oc1ccccc1NS(=O)(=O)c1ccc(C(=O)NCCCN2CCC(N3CCCCC3)CC2)cc1
pIC50: 7.00 to 7.70
//
molecule: O=C(NCCCN1CCN(c2ccncc2)CC1)c1ccc(S(=O)(=O)Nc2ccccc2Oc2ccc(Br)cc2)cc1
pIC50: > 7.70
//
molecule: Cc1ccnc(N2CCN(CCNC(=O)c3ccc(S(=O)(=O)Nc4ccccc4Oc4ccc(Cl)cc4Cl)cc3)CC2)c1
pIC50: 7.00 to 7.70
//
molecule: O=C(N[C@H]1CC[C@H](CCN2CCCC2)CC1)c1ccc(S(=O)(=O)Nc2ccccc2Oc2ccc(Cl)c(Cl)c2)cc1
pIC50: 7.00 to 7.70
//
molecule: O=C(NCCCCC1CCNCC1)c1ccc(S(=O)(=O)Nc2ccccc2Oc2ccc(Br)cc2)cc1 [Example 101, hydrochloride]
pIC50: 7.00 to 7.70
//
molecule: N=C(N)NCc1ccc(CNC(=O)c2ccc(S(=O)(=O)Nc3ccccc3Oc3ccc(Br)cc3)cc2)cc1 [Example 23, hydrochloride]
pIC50: 6.30 to 7.00
//
molecule: O=C(NCCc1ccc(C2=NCCN2)cc1)c1ccc(S(=O)(=O)Nc2ccccc2Oc2ccc(Cl)cc2Cl)cc1 [Example 2, trifluoroacetate]
pIC50: > 7.70
//
molecule: COc1ccc(Oc2ccccc2NS(=O)(=O)c2ccc(C(=O)NCCCN3CCC(N4CCCCC4)CC3)cc2)c(Cl)c1
pIC50: 7.00 to 7.70
//
molecule: O=C(Nc1ccc(N2CCC(N3CCCCC3)CC2)cc1)c1ccc(S(=O)(=O)Nc2cc(F)ccc2Oc2ccc(Br)cc2)cc1
pIC50: > 7.70
//
molecule: O=C(NCCc1ccc(C2=NCCN2)cc1)c1ccc(S(=O)(=O)Nc2ccccc2Oc2ccc(Br)cc2Cl)cc1
pIC50: > 7.70
//
molecule: O=C(Nc1ccc(N2CCC(N3CCCCC3)CC2)cc1)c1ccc(S(=O)(=O)Nc2ccccc2Oc2ccc(C(F)(F)F)cc2)cc1
pIC50: > 7.70
//
molecule: Cc1cccc(N2CCN(CCNC(=O)c3ccc(S(=O)(=O)Nc4ccccc4Oc4ccc(Cl)cc4Cl)cc3)CC2)n1
pIC50: 7.00 to 7.70
//
molecule: O=C(NCCCN1CCC(N2CCCCC2)CC1)c1ccc(S(=O)(=O)Nc2ccccc2Oc2ccc(Cl)c(Cl)c2)cc1
pIC50: > 7.70
//
molecule: O=C(CCNC(=O)c1ccc(S(=O)(=O)Nc2ccccc2Oc2ccc(Cl)cc2Cl)cc1)NCCC1CCNCC1 [Example 56, hydrochloride]
pIC50: 7.00 to 7.70
//
molecule: O=C(NCCN1CCN(c2ccncc2)CC1)c1cccc(S(=O)(=O)Nc2ccccc2Oc2ccc(Cl)cc2Cl)c1 [Example 10, dihydrochloride]
pIC50: 7.00 to 7.70
